All figures here come from PubChem BioAssay AID1159580.

Test details: chemical genetic growth profiling, strain panel (AID 1159580);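 also: tested at 20 µM; growth read once vehicle control cultures reached saturation at 30 °C; lower values mean less growth of the strain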
Setup conditions: S. cerevisiae deletion strains, growth OD, locus YLR357W, strain rsc2
Hit rate of the full screen: of about 5,500 compounds, about 2,000 (36%) were called active. Inconclusive results (about 18%) are left out. Rule as the data show it: active = normalized growth mostly below about 0.91 (no sharp cut-off); inconclusive = no clear call, values can overlap the other calls; inactive = mostly above about 0.92. Some of the results follow.
Select the matching outcome among Y for active, N for inactive

>  <Molecule>
O=C1C(Cl)=C(Cl)C(=O)C(Cl)=C1Cl

>  <Group>
N

$$$$
>  <Molecule>
CCC[C@H](N[C@@H](C)C(=O)N1[C@H](C(=O)O)C[C@@H]2CCCC[C@@H]21)C(=O)OCC

>  <Group>
N

$$$$
>  <Molecule>
C=C[C@@](C)(O)CCC1C(=C)C[C@H](O)C2C(C)(C)CCCC12C (stereo partly specified)

>  <Group>
N

$$$$
>  <Molecule>
Clc1ccc(C(OCCN2CCCCC2)c2ccccc2)cc1 (stereo unspecified)

>  <Group>
N

$$$$
>  <Molecule>
CN(C)CCOC(c1ccc(Cl)cc1)c1ccccn1 (stereo unspecified)

>  <Group>
N

$$$$

In this assay, the call recorded for Oc1cc(O)c2c(c1)O[C@H](c1ccc(O)c(O)c1)[C@@H](O)C2 was what?
N

In this assay, the call recorded for O=C(O)/C=C/c1ccc(O)c(O)c1 was what?
N

In this assay, the call recorded for O=C(Oc1cc(OC(=O)c2ccccc2)c2c(c1)O[C@H](c1ccc(OC(=O)c3ccccc3)c(OC(=O)c3ccccc3)c1)[C@@H](OC(=O)c1ccccc1)C2)c1ccccc1 was what?
N

In this assay, the call recorded for C=CCCCCCCCCCCCc1ccco1 was what?
N

In this assay, the call recorded for C=C[C@@](C)(O)CCC1C(=C)CCC2[C@@](C)(CO)CCC[C@]12C (stereo partly specified) was what?
Y

In this assay, the call recorded for COc1cc2nc(N(C)CCCNC(=O)C3CCCO3)nc(N)c2cc1OC (stereo unspecified) was what?
N

In this assay, the call recorded for O=C(/C=C/c1ccc(O)c(O)c1)OC(Cc1ccc(O)c(O)c1)C(=O)O (stereo unspecified) was what?
N

In this assay, the call recorded for Cc1ccccc1C(OCCN(C)C)c1ccccc1 (stereo unspecified) was what?
N

In this assay, the call recorded for CNCCC(Oc1ccc(C(F)(F)F)cc1)c1ccccc1 (stereo unspecified) was what?
N

In this assay, the call recorded for CCCCCCCCCCC[C@@H](C[C@H]1OC(=O)[C@H]1CCCCCC)OC(=O)[C@@H](CC(C)C)NC=O was what?
N

In this assay, the call recorded for C=C1CCC2[C@](C)(CO)[C@H](O)CC[C@@]2(C)[C@@H]1C/C=C1/C(=O)OC[C@H]1O (stereo partly specified) was what?
N

In this assay, the call recorded for OCC(O)CN1CCN(c2ccccc2)CC1 (stereo unspecified) was what?
N

In this assay, the call recorded for O=C1NCC2(CCN(CCc3ccccc3)CC2)O1 was what?
N

In this assay, the call recorded for O=C(Oc1cc(O)cc2c1C[C@@H](OC(=O)c1cc(O)c(O)c(O)c1)[C@@H](c1cc(O)c(O)c(O)c1)O2)c1cc(O)c(O)c(O)c1 was what?
N

In this assay, the call recorded for CC(=O)Oc1cc(OC(C)=O)c2c(c1)O[C@H](c1ccc(OC(C)=O)c(OC(C)=O)c1)[C@H](OC(C)=O)C2 was what?
N

In this assay, the call recorded for CCCCCCCCCCCCCc1ccco1 was what?
N
